test system: TEAD Reporter-MCF7 cell line; experiment: YAP/TEAD cellular activity assay: inhibition of TEAD-Luc activity in TEAD Reporter-MCF7 cell line; assay type: cell-based, human; conditions: TEAD Reporter-MCF7 cells, 24 hours incubation with compound, luciferase readout
Known EC50 of a selection of molecules
# value in nM; strip the unit string

Given CNS(=O)(=O)c1ccc(Oc2ccc(F)cc2F)c(-c2cn3c(n2)CCC3)c1 [4-22] , state its recorded EC50. 25.3

Request: CNS(=O)(=O)c1ccc(Oc2ccc(C(F)(F)F)cc2)c(-c2cn3c(n2)OC(C)C3)c1 (single isomer, unassigned) [1-39] 7.4

Cool, now CNS(=O)(=O)c1ccc(Oc2ccc(F)cc2F)c(-c2cn3c(n2)CCC3)c1 [4-21] 55.9

Proceed to CNS(=O)(=O)c1ccc(Oc2ccc(C(F)(F)F)cc2)c(-c2cn3c(n2)OC(C)C3)c1 (single isomer, unassigned) [1-38] 28.4

Further cases:
Requested read-out: EC50. Entry: CNS(=O)(=O)c1ccc(Oc2ccc(C(F)(F)F)cc2)c(-c2cn3c(n2)CC(C)C3)c1 (single isomer, unassigned) [1-42] 6.4

###

test system: TEAD Reporter-MCF7 cell line; experiment: YAP/TEAD cellular activity assay: inhibition of TEAD-Luc activity in TEAD Reporter-MCF7 cell line; type: cell-based, human; details: Homo sapiens; TEAD Reporter-MCF7 cells, 24 hours incubation with compound, luciferase readout
OBSERVABLE: EC50 (nM)
Give just the number in nM; leave the unit off.

Give TEAD Reporter-MCF7 cell line EC50 for CNS(=O)(=O)c1ccc(Oc2ccc(Cl)cc2)c(-c2cc3n(n2)CCC3)c1 [8-1] 10.4

# ---- query molecule ----
Kindly state the measured EC50 obtained for CC(C)NS(=O)(=O)c1ccc(Oc2ccc(C(F)(F)F)cc2)c(-c2cn3c(n2)CCC3)c1 [7-1] with TEAD Reporter-MCF7 cell line. 138
